Test: qHTS Assay for Lipid Storage Modulators (AID 1519)
Conditions: Drosophila S3 cells, BODIPY lipid droplet/cell ratio, laser cytometry; measured here: lipid channel max response; cells loaded with oleic acid
Results filed as inconclusive are left out.
Response field label takes Condition met when max response is strictly below -20% and Condition not met in all other cases.

q: Threshold test, max response < -20%: NC(N)=[N+]1CCc2ccccc2C1
a: Condition not met

q: Hello, I'm reviewing records and need to know if max response of Nc1ncnc2c1ncn2C1CCCO1 (stereo unspecified) is below -20%. Could you check?
a: Condition not met

q: Record CN1CCCC1CCOC(C)(c1ccccc1)c1ccc(Cl)cc1 (stereo unspecified) : is its max response strictly below -20%?
a: Condition met

q: Is -20% strictly greater than the compound's reported max response? compound: CCCCOC(=O)NS(=O)(=O)c1sc(CC(C)C)cc1-c1ccc(Cn2c(CC)nc3c(C)cc(C)nc32)cc1
a: Condition not met

q: Does this compound meet the criterion max response < -20%? NC1(C(=O)O)CCc2cc(C(=O)O)ccc21 (stereo unspecified)
a: Condition met

----------
Biological target: RecQ-like DNA helicase BLM (Homo sapiens)
Assay: qHTS Validation Assay for Inhibitors of Bloom's syndrome helicase (BLM) (AID 2364)
Conditions: BLM helicase DNA unwinding, fluorescence, in vitro; series mostly up to 57.1 µM
Records with an inconclusive call do not appear. Active and inactive are the calls of the source. The call rests on the fitted dose curve; in most records, active means well fitted inhibition curve with a large enough effect; inconclusive means small, poorly fitted or top-dose-only effect; inactive means no such curve, though single readings can be large or run the other way.
Assign a class; possible classes are active, inactive

q: Recorded test call requested for Cn1cc(C(=O)OCC2CCN(CCNS(C)(=O)=O)CC2)c2ccccc21
a: inactive

q: Recorded call for COc1ccc(NC(=O)c2ccc(-c3ccc(-c4noc(C)n4)cc3C)cc2)cc1N1CCN(C)CC1 ?
a: inactive

q: Field: outcome | Entry: N[C@H](C(=O)O)[C@H]1C[C@@H]1C(=O)O
a: inactive

q: Hello, I am checking results. What call was entered for CCCCCCCCCCC/C=C\C(C)(C)/C=C\CCCC(=O)O ?
a: active

q: Which outcome did this test record for the compound COc1cc([C@@H]2c3cc4c(cc3[C@H](O)C3COC(=O)[C@@H]32)OCO4)cc(OC)c1OC (stereo not given in full) ?
a: inactive

----------
Assay: qHTS for Activators of Parkin Expression: LOPAC Validation Assay (NLuc Reporter) (AID 720572;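 also: 0% = DMSO and 100% = positive control compound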)
Conditions: Parkin promoter NanoLuc reporter cells, luminescence; series mostly up to 46.1 µM
Results filed as inconclusive are left out. Calls of active or inactive are those of the source. Calls come from the whole dose curve; as a rule, active = well fitted activation curve with a large enough effect; inconclusive = small, poorly fitted or top-dose-only effect; inactive = flat fitted curve, though single readings scatter.
VALUE_KIND: outcome

Consider the worked cases shown below.
{"MOLECULE": "CN1CC(O)C(O)C(O)C1CO (stereo unspecified)", "RESULT": "inactive"}
{"MOLECULE": "CC(C)NC[C@H](O)COc1ccc(CC(N)=O)cc1", "RESULT": "inactive"}
{"MOLECULE": "C[C@]12C=CC(=O)C=C1CC[C@@H]1C2=CC[C@]2(C)[C@@H](C(=O)CN3CCN(c4cc(N5CCCC5)nc(N5CCCC5)n4)CC3)CC[C@@H]12", "RESULT": "inactive"}
{"MOLECULE": "CSC(N)=NCCC[C@H](N)C(=O)O", "RESULT": "inactive"}
{"MOLECULE": "Nc1ncnc2c1c(-c1ccc(Oc3ccccc3)cc1)cn2C1CCCC1", "RESULT": "inactive"}

Now consider the entry below.
q: Value lookup for outcome; key = CCCCCC(O)CCCC(=O)O (stereo unspecified)
a: inactive

----------
Assay: qHTS for inhibitors of adenylyl cyclases using a fission yeast platform: a pilot screen against the NCATS LOPAC library (AID 1347410);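 also: plate controls were DMSO vehicle for no effect and DPI positive control for full effect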
Conditions: S. pombe CHP2027, fbp1-GFP fluorescence, 18 h, yeast expressing mammalian AC9 and human GNAS; series mostly up to 57.5 µM
Activity calls are given as the source filed them. Calls come from the whole dose curve; as a rule, active = well fitted curve in the direction sought with a large enough effect; inconclusive = small, poorly fitted or top-dose-only effect, or effect the other way, or another doubt; inactive = no such curve, though single readings can be large or run the other way.
VALUE_KIND: outcome

{"COMPOUND": "CN1CC(O)C(O)C(O)C1CO (configuration not stated)", "outcome": "inactive"}
{"COMPOUND": "CSc1nc(N)c2ncn([C@@H]3O[C@H](COP(=O)(O)OP(=O)(O)O)C(O)[C@H]3O)c2n1 (some centres not stated)", "outcome": "inactive"}
{"COMPOUND": "Nc1ccc(N2C(=O)c3ccccc3C2=O)c(Cl)c1", "outcome": "inactive"}
{"COMPOUND": "COC(=O)C(C)(N)Cc1ccc(O)cc1 (configuration not stated)", "outcome": "inactive"}

Here is the next item to consider.
q: Which value of outcome has been reported for c1ccc2c(c1)CCC[C@H]2Nc1nc2ccccc2[nH]1 in the records?
a: inactive

----------
Molecular target: Ubiquitin carboxyl-terminal hydrolase 1 (Homo sapiens) (UniProt O94782)
Sequence (O94782 whole entry, looked up): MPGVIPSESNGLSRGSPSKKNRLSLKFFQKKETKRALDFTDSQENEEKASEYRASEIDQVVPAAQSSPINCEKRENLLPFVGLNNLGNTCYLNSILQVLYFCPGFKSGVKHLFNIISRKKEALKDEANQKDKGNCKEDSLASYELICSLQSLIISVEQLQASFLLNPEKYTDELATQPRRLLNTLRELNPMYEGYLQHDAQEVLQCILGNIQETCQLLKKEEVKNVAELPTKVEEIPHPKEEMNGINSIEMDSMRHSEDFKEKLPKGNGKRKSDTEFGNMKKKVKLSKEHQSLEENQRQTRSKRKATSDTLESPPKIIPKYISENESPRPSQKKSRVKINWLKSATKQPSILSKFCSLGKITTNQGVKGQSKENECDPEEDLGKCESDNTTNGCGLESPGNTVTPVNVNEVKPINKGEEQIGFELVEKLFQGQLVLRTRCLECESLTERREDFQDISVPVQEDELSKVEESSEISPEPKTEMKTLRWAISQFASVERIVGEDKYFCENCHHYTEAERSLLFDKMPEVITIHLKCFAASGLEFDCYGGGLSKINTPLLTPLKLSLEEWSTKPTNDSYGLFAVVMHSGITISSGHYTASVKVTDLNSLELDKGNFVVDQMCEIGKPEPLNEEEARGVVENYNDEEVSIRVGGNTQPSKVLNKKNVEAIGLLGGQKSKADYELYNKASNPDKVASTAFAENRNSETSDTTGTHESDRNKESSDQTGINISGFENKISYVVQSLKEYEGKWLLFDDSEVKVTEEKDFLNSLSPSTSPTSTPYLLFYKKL
Test: Inhibitors of USP1/UAF1: Pilot qHTS (AID 504865); also: nearly all actives have a fitted effect of over 35% in size
Details: purified USP1/UAF1, Ub-rhodamine cleavage fluorescence; series mostly up to 114 µM
Records with an inconclusive call do not appear. Active and inactive are the calls of the source. Calls follow the shape of the dose curve; as a rule, active = well fitted inhibition curve with a large enough effect; inconclusive = small, poorly fitted or top-dose-only effect; inactive = flat fitted curve, though single readings scatter.
Lab note: assign the record to one of active, inactive

q: Please indicate how the test categorized Cc1cccc(C2CN(C)CCc3c2cc(O)c(O)c3Cl)c1 (stereo not drawn) .
a: inactive

q: Just curious, what result did COc1cc(C(O)C(=O)O)ccc1O (stereo not drawn) get here?
a: inactive

q: In this assay, the call recorded for N[C@H](C(=O)O)c1cc(O)cc(O)c1 was what?
a: inactive

q: Outcome logged for C=CCN1CCc2cc(O)c(O)cc2C(c2ccccc2)C1 (stereo not drawn) in this assay:
a: inactive

q: Dear all, I need the recorded test outcome for N#C/C(=C\c1ccc(O)c(O)c1)C(=O)NCCc1ccccc1 , thank you.
a: inactive

q: // outcome(item) with item = O=C1OC(=O)C2C3CCC(O3)C12 (stereo not drawn)
a: inactive

q: Write down the call the test reported for this compound. Item: CCc1ccc2c(-c3cccc(Cl)c3)nc(=O)n(CC)c2n1
a: inactive

q: Recorded test outcome, item CCCn1c(=O)c(C)cn2nc(N)nc12
a: inactive

q: Can you look up the reported call for O=C(O)/C=C/c1ccc(O)c(O)c1 for me?
a: inactive

q: # fetch the recorded call for Fc1ccc(CN(C2=NCCN2)c2c(Cl)cccc2Cl)cc1 here
a: inactive

q: Tell me the recorded outcome of this test for CCCCCCCCCCCCCCSCC(=O)O .
a: active

q: Please share the test call associated with CC(=O)C(C)=O .
a: inactive

q: Could you kindly confirm the outcome this assay logged for N#Cc1cc2nc(O)c(O)nc2cc1[N+](=O)[O-] ?
a: inactive

q: Each compound tested received a call. Report the one for N[C@@H](CCC(=O)N[C@H](CSN=O)C(=O)NCC(=O)O)C(=O)O .
a: inactive

q: Record lookup: outcome of this test for NC1(C(=O)O)CCc2cc(C(=O)O)ccc21 (stereo not drawn) ?
a: inactive

q: Recorded call for O=C1C2C=CC=CC2=NC(=S)N1CCN1CCC(=C(c2ccc(F)cc2)c2ccc(F)cc2)CC1 (stereo not drawn) ?
a: inactive

q: Assay result, entry Brc1c(Br)c(Br)c2[nH]cnc2c1Br — outcome?
a: inactive

q: // param item: Nc1ncnc2c1c(-c1ccc(Oc3ccccc3)cc1)cn2C1CCCC1 ; yields the recorded call
a: inactive

q: Lab log entry: CSC(=N)N — outcome as called in the assay?
a: inactive

q: // param item: CCCCCCCCCCC/C=C\C(C)(C)/C=C\CCCC(=O)O ; yields the recorded call
a: active

q: I'd appreciate the recorded outcome for C=CCNc1ncnc2ccc(Br)cc12 from this test.
a: inactive

q: Call for entry NC(=Nc1ccccc1)NC(=O)c1nc(Cl)c(N)nc1N :
a: inactive

q: Tell me the assay call for NCCS(=O)O please.
a: inactive

q: Called result for CN(CC[C@@H](Oc1ccc(C(F)(F)F)cc1)c1ccccc1)CC(=O)O
a: inactive

q: Field: outcome | Entry: CN1CCc2cc(Cl)c(O)cc2[C@@H](c2ccccc2)C1
a: inactive

q: Recorded call for OCC1NCC(O)C(O)C1O (stereo not drawn) ?
a: inactive

q: Test call for this compound, please: NCC(O)(CS(=O)(=O)O)c1ccc(Cl)cc1 (stereo not drawn)
a: inactive

q: Returns: the outcome recorded for O=C(O)Cc1ccc(O)c(O)c1 in this assay.
a: inactive

----------
Target: DNA repair nuclease/redox regulator APEX1 (Homo sapiens) (UniProt P27695)
Sequence (P27695 whole entry, looked up): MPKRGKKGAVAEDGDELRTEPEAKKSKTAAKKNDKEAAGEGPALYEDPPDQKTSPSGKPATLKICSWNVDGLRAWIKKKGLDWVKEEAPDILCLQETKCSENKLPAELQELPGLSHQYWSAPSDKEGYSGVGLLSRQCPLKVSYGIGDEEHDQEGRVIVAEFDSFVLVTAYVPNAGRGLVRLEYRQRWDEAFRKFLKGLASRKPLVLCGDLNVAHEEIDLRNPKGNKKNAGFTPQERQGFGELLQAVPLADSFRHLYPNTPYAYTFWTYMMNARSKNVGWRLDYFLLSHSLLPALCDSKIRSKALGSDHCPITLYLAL
Assay: qHTS Validation Assay for Inhibitors of the Human Apurinic/apyrimidinic Endonuclease 1 (APE1) (AID 1705)
Details: purified APE1 endonuclease activity, fluorescence, titration; series mostly up to 57.1 µM
Results filed as inconclusive are left out. The source made the active and inactive calls. Calls come from the whole dose curve; as a rule, active = well fitted inhibition curve with a large enough effect; inconclusive = small, poorly fitted or top-dose-only effect; inactive = flat fitted curve, though single readings scatter.
Write down the outcome that applies. Available outcomes: class 1 = active, class 0 = inactive

q: Would you mind telling me which call this test gave C=CCN1CCc2c(cc(O)c(O)c2Br)[C@@H](c2ccccc2)C1 ?
a: class 0

q: Lab log entry: Cn1cc(C(F)(F)F)nc1-c1ccc(OCC(O)CNCCOc2ccc(O)c(C(N)=O)c2)cc1 (configuration not stated) — outcome as called in the assay?
a: class 0

q: Dear colleague, could you share the recorded outcome for CO/N=C(\C(=O)N[C@@H]1C(=O)N2C(C(=O)O)=C(CSc3nc(=O)c(O)nn3C)CSC12)c1csc(N)n1 (some centres not stated) when you have a moment?
a: class 1

q: Called result for [N-]=[N+]=Nc1ccc(C(=O)CSC[C@H](NC(=O)CC[C@H](N)C(=O)O)C(=O)NCC(=O)O)cc1
a: class 1

q: Could you kindly confirm the outcome this assay logged for N=C(N)c1ccc(OCCCCCOc2ccc(C(=N)N)cc2)cc1 (tested in a mixture with another compound) ?
a: class 0

q: Could you please tell me the result logged for N=C(N)c1ccc(N)cc1 in this assay?
a: class 0

q: Returns: the outcome recorded for O=C(O)c1ccccc1Nc1cccc(OCc2ccc3ccccc3n2)c1 in this assay.
a: class 0

q: Would you mind telling me which call this test gave O=C(O)c1cc2cc(F)ccc2[nH]1 ?
a: class 0

q: Tell me the recorded outcome of this test for CC(N)(C(=O)O)c1ccc(C(=O)O)cc1 (configuration not stated) .
a: class 0

q: Could you check what this test reported for N#CC(C#N)=C(N)/C(C#N)=C/c1ccc(O)cc1 ?
a: class 0

q: What outcome does the record of this test show for O=C(O)C1=CCNCC1 ?
a: class 0

q: Could you check what this test reported for CN1C2CCC1CC(OC(c1ccccc1)c1ccccc1)C2 (configuration not stated) ?
a: class 0

q: Query: recorded result category for c1ccc(CN2CCC3(CCCc4ccccc43)CC2)cc1 in this test
a: class 0

q: Record request — test call for CC(=O)NCCc1c[nH]c2ccc(O)cc12
a: class 0

q: What classification did CCN1C(=O)C=CC1=O end up with in this test?
a: class 0

q: // param item: O=C(OCCN1CCOCC1)C1(c2ccccc2)CCCCC1 ; yields the recorded call
a: class 0

q: Answer briefly: the call reported for O=[N+]([O-])c1cccc2cn[nH]c12 in this assay.
a: class 0

q: // return assay outcome for COc1cc2c(CCNC(C)=O)c[nH]c2cc1O
a: class 1

q: Test call for this compound, please: N=C(N)c1ccccc1
a: class 0

q: Field: outcome | Entry: O=S(=O)(c1cccc2c(Cl)cccc12)N1CCCNCC1
a: class 0

q: Can you look up the reported call for Cc1ccc2c(c1)C(N1CCN(C)CC1)=Nc1cccnc1N2 for me?
a: class 0

q: State the result this test recorded for NC1C=CC=C(C(=O)O)C1 (configuration not stated) .
a: class 0

q: Look up the recorded call for Cc1cccc(C2CN(C)CCc3c2cc(O)c(O)c3Cl)c1 (configuration not stated) in this test.
a: class 0

q: Can you look up the reported call for CCC(=O)N1CCN(C(=O)c2ccccc2)CC1 for me?
a: class 0

q: Any idea what this test logged for CC1=C(C(=O)O)N2C(=O)[C@@H](NC(=O)C(N)C3=CCC=CC3)[C@H]2SC1 (some centres not stated) ?
a: class 0

q: State the result this test recorded for C=C1C(=O)O[C@@H]2[C@H]3O[C@]3(C)CCC=C(C)CC[C@@H]12 .
a: class 0

q: Returns: the outcome recorded for O=C(O)C1=CCCNC1 in this assay.
a: class 0

q: Recorded call for NCCCCN ?
a: class 0

q: For O=C1OC(=O)C2C3CCC(O3)C12 (configuration not stated) , what call appears in the results of this test?
a: class 0

q: Returns: the outcome recorded for O=c1cc(O)cc(/C=C/c2ccc(O)c(O)c2)o1 in this assay.
a: class 1

q: Outcome? COc1ccc(C(=O)NCc2cccnc2)cc1C(=O)NCc1cccnc1
a: class 0

q: Please share the test call associated with O=C(O)C1CN(CCCP(=O)(O)O)CCN1 (configuration not stated) .
a: class 0

q: Identify the outcome logged in this assay for the compound shown: Nc1ncnc2c1ncn2C1CCCC1
a: class 0

q: State the result this test recorded for OC[C@H]1NC[C@@H](O)[C@@H]1O .
a: class 0

q: Just curious, what result did O=c1oc(Cl)c(Cl)c2ccccc12 get here?
a: class 0

q: In this assay, the call recorded for Nc1ccc(CCNc2ncnc3c2ncn3C2OC(CO)C(O)C2O)cc1 (configuration not stated) was what?
a: class 0

q: Just curious, what result did CCCCCCC/C=C\CCCCCCCCC(=O)O get here?
a: class 1

q: Tell me the recorded outcome of this test for COc1cc(CC(=O)O)ccc1O .
a: class 0

q: // return assay outcome for N[C@H](C(=O)O)c1cc(O)cc(O)c1
a: class 0

q: What call does the record list for CC(N)=O ?
a: class 0

q: Test call, this compound: NC(=Nc1ccccc1)NC(=O)c1nc(Cl)c(N)nc1N
a: class 0

q: What was the test verdict on CCCCCCN(CCCCCC)C(=O)Cc1c(-c2ccc(F)cc2)[nH]c2ccccc12 ?
a: class 0

q: Per the records of this test, what outcome belongs to COc1ccc(NC(=O)c2ccc(-c3ccc(-c4noc(C)n4)cc3C)cc2)cc1N1CCN(C)CC1 ?
a: class 0

q: How was OC1(c2ccc(Cl)cc2)CCN(Cc2c[nH]c3ccccc23)CC1 classified in this test?
a: class 0

q: Hi, do you know how CN1CCCC1CCOC(C)(c1ccccc1)c1ccc(Cl)cc1 (configuration not stated) came out in this test?
a: class 0

q: Record request — test call for CCN(CC)CCCCCCCCOC(=O)c1cc(OC)c(OC)c(OC)c1
a: class 0

q: Assay result, entry N[C@@H](Cc1ccc(O)c(I)c1)C(=O)O — outcome?
a: class 0

q: For this compound, state the assay outcome: Cc1cccc(C(=O)NCN2CCN(c3ccccc3C#N)CC2)c1
a: class 0

q: Fill in: this test's call for N[C@H]1CONC1=O is ___
a: class 0

q: // return assay outcome for COC(=O)C(N)Cc1ccc(Cl)cc1 (configuration not stated)
a: class 0

q: Short answer needed: outcome of this test for CC(C)(CO)Cc1cc(C(C)(C)C)c(O)c(C(C)(C)C)c1 ?
a: class 0

q: Field: outcome | Entry: CNCCNS(=O)(=O)c1cccc2cnccc12
a: class 0

meta.source: PubChem BioAssay (NCATS)
